Tested on: iBMDM (immortalised mouse bone-marrow-derived macrophages), LPS-stimulated
Assay: mitochondrial superoxide (MitoSOX fluorescence) fold increase over unstimulated control; higher = more LPS-induced mitochondrial ROS (less inhibition)
Conditions: inhibitor concentration: 500 nM; LPS: 100 ng/ml; time after LPS: 4 h
Record form. Attribute: mitochondrial superoxide. Fill in for each entry.
# print the numeric value only

# input For the compound Cc1ccc(NC(=O)c2ccc(CN3CCN(C)CC3)cc2)cc1Nc1nccc(-c2cccnc2)n1 [Imatinib (STI571)] , what mitochondrial superoxide is on record?
# output 1.49

# input For the compound CN1CCN(c2nc(C3=C(c4c[nH]c5ccccc45)C(=O)NC3=O)c3ccccc3n2)CC1 , what mitochondrial superoxide is on record?
# output 1.75

# input For the compound CC[C@H](Nc1ncnc2[nH]cnc12)c1nc2cccc(F)c2c(=O)n1-c1ccccc1 , what mitochondrial superoxide is on record?
# output 1.48

# input For the compound Cc1cc(Nc2cc(N3CCN(C)CC3)nc(Sc3ccc(NC(=O)C4CC4)cc3)n2)n[nH]1 , what mitochondrial superoxide is on record?
# output 1.73

# input For the compound C[C@@H](Oc1cc(-c2cnn(C3CCNCC3)c2)cnc1N)c1c(Cl)ccc(F)c1Cl , what mitochondrial superoxide is on record?
# output 1.64

# input For the compound CCc1nc(-c2cccc(C)c2)c(-c2ccnc(NC(=O)c3ccccc3)c2)s1 , what mitochondrial superoxide is on record?
# output 1.18

# input For the compound NC(=O)c1cccc(-c2cc(Nc3ccc(OC(F)(F)F)cc3)ncn2)c1 , what mitochondrial superoxide is on record?
# output 1.21
